# Target Or System: T1, human IL-10 receptor (hIL-10R alpha and beta chains) on HEK-Blue IL-10 reporter cells (human, UniProt Q13651 22-578; Q08334 20-325)
# T1 sequence 1: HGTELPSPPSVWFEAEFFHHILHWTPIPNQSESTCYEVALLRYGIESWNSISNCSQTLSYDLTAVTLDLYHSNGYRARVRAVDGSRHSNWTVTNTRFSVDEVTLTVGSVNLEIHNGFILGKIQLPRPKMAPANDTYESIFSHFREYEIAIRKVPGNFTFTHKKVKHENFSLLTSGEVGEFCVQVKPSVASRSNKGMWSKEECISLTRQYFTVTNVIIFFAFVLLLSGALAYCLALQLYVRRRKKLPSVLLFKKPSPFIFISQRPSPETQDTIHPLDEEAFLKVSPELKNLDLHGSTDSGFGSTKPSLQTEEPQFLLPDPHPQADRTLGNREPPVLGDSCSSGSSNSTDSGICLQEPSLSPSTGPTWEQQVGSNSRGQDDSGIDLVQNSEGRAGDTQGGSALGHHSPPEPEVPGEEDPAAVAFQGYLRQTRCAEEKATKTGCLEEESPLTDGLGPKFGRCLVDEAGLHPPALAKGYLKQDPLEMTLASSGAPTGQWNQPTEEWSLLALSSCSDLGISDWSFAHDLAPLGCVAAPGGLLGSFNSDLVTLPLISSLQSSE
# T1 sequence 2: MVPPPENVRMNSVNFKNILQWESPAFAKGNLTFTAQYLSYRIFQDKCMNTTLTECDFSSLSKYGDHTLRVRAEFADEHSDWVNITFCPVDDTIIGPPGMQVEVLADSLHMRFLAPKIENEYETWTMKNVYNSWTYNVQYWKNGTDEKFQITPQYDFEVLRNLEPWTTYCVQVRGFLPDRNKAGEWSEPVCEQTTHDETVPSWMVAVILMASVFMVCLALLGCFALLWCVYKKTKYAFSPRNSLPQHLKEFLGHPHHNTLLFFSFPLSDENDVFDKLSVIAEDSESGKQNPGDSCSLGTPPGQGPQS
# Assay Explanation: cell-based or functional assay
Would you mind labelling by Abs 630 (25 nM)? At or over 0.5 Abs 630 is 1, under is -1.

IL10R binding molecule of SEQ ID NO: 332 (bispecific antibody) QVQLQESGGGSVQAGGSLRLSCTVSRYTASVNYMGWFRQAPGKEREGVATIFTGAGTTYYANSVKGRFTISRDNAKNTAYLQMNSLKPEDTAIYYCAVDFRGGLLYRPAYEYTYRGQGTQVTVSSGGGSQVQLQESGGGSVQAGGSLRLSCAASGYSNCSYDMTWYRQAPGKEREFVSAIHSDGSTRYADSVKGRFFISQDNAKNTVYLQMNSLKPEDTAMYYCKTDPLHCRAHGGSWYSVRANYWGQGTQVTVSSASHHHHHH = -1
IL10R binding molecule of SEQ ID NO: 296 (bispecific antibody) QVQLQESGGGSVQAGGSLRLSCGASGYTYSSYCMGWFRQVPGKEREGVAVIDSDGSTSYADSVKGRFTISKDNGKNTLYLQMNSLKPEDTAMYYCAADLGHYRPPCGVLYLGMDYWGKGTQVTVSSGGGSQVQLQESGGGSVQAGGSLRLSCAASGYSYSSYCMGWFRQAPGKEREGVATIDSDGMTRYADSVKGRFTISKDNAKNTLYLQMNSLKPEDTAMYYCAAPLYDCDSGAVGRNPPYWGQGTQVTVSSASHHHHHH = 1
IL10R binding molecule of SEQ ID NO: 301 (bispecific antibody) QVQLQESGGGSVQAGGSLRLSCAASGYSNCSYDMTWYRQAPGKEREFVSAIHSDGSTRYADSVKGRFFISQDNAKNTVYLQMNSLKPEDTAMYYCKTDPLHCRAHGGSWYSVRANYWGQGTQVTVSSGGGSQVQLQESGGGSVQAGGSLRLSCTVSRYTASVNYMGWFRQAPGKEREGVATIFTGAGTTYYANSVKGRFTISRDNAKNTAYLQMNSLKPEDTAIYYCAVDFRGGLLYRPAYEYTYRGQGTQVTVSSASHHHHHH = 1
IL10R binding molecule of SEQ ID NO: 269 (bispecific antibody) QVQLQESGGGSVQAGGSLRLSCAASRFTYSSYCMGWFRQAPGKEREGVASIDSDGSTSYTDSVKGRFTISKDNAKNTLYLQMNSLKPEDTAMYYCALDLMSTVVPGFCGFLLSAGMDYWGKGTQVTVSSGGGSQVQLQESGGGSVQTGGSLRLSCAASGYTYLRGCMGWFRQAPGKEREGVAVMDVVGDRRSYIDSVKGRFTISRDNAANSVYLQMDNLKPEDTAMYYCTAGPNCVGWRSGLDYWGQGTQVTVSSASHHHHHH = -1
IL10R binding molecule of SEQ ID NO: 330 (bispecific antibody) QVQLQESGGGSVQAGGSLRLSCTVSRYTASVNYMGWFRQAPGKEREGVATIFTGAGTTYYANSVKGRFTISRDNAKNTAYLQMNSLKPEDTAIYYCAVDFRGGLLYRPAYEYTYRGQGTQVTVSSGGGSQVQLQESGGGSVQAGGSLRLSCTVSGYTYSSNCMGWFRQAPGKEREGVATIYTGGGNTYYADSVKGRFTISQDNAKNTVYLQMNNLKPEDTAMYYCAAEPLSRVYGGSCPTPTFDYWGQGTQVTVSSASHHHHHH = -1
IL10R binding molecule of SEQ ID NO: 336 (bispecific antibody) QVQLQESGGGSVEAGGSLRLSCAASGYTHSSYCMGWFRQAPGKEREGVAAIDVDGSTTYADSVKGRFTISKDNAKNTLYLQMNSLKPEDTGMYYCAAEFADCSSNYFLPPGAVRYWGQGTQVTVSSGGGSQVQLQESGGGSVQAGGSLRLSCAVSGYAYSTYCMGWFRQAPGKEREGVAAIDSGGSTSYADSVKGRFTISKDNAKNTLYLRMNSLKPEDTAMYYCAAVPPPPDGGSCLFLGPEIKVSKADFRYWGQGTQVTVSSASHHHHHH = 1
IL10R binding molecule of SEQ ID NO: 327 (bispecific antibody) QVQLQESGGGSVQAGGSLRLSCTVSRYTASVNYMGWFRQAPGKEREGVATIFTGAGTTYYANSVKGRFTISRDNAKNTAYLQMNSLKPEDTAIYYCAVDFRGGLLYRPAYEYTYRGQGTQVTVSSGGGSQVQLQESGGGSVQAGGSLRLSCAASRFTYSSYCMGWFRQAPGKEREGVASIDSDGSTSYTDSVKGRFTISKDNAKNTLYLQMNSLKPEDTAMYYCALDLMSTVVPGFCGFLLSAGMDYWGKGTQVTVSSASHHHHHH = 1
